Experiment: Solubility of asenapine maleate in a variety of solvents
Type: physicochemical
Conditions: organic solvent or mixture; solvent dimethylacetamide; read-out: solubility of asenapine maleate, Concentration
Structures can show the parent of a compound that is named as a salt.
readout-type: solubility (mg/mL)
Give just the number in mg/mL; leave the unit off.

Asked: Given the entry CN1CC2c3ccccc3Oc3ccc(Cl)cc3C2C1 (stereo not shown) [asenapine maleate] , report its measured solubility.
Given back: 500

----------
Experiment: Solubility of asenapine maleate in a variety of solvents
Type: physicochemical
Details: THF, organic solvent or mixture; read-out: solubility of asenapine maleate, Concentration
Where a name gives a salt, the structure may show the parent alone.
readout-type: solubility (mg/mL)
Note: unit mg/mL is implicit; provide only the numeric part.

Asked: # get_value(readout='solubility', item= CN1CC2c3ccccc3Oc3ccc(Cl)cc3C2C1 (stereo not shown) [asenapine maleate] )
Given back: 100

----------
Test: Solubility of asenapine maleate in a variety of solvents
Assay type: physicochemical
Settings: organic solvent or mixture; solvent acetone; read-out: solubility of asenapine maleate, Concentration
Where a name gives a salt, the structure may show the parent alone.
readout-type: solubility (mg/mL)
Entry rule: numbers only, all in mg/mL.

Asked: Query: solubility; subject: CN1CC2c3ccccc3Oc3ccc(Cl)cc3C2C1 (stereo not shown) [asenapine maleate]
Given back: 67

----------
Test: Solubility of asenapine maleate in a variety of solvents
Format: physicochemical
Conditions: organic solvent or mixture; solvent benzyl alcohol; read-out: solubility of asenapine maleate, Concentration
Where a name gives a salt, the structure may show the parent alone.
readout-type: solubility (mg/mL)
Just the number in mg/mL, nothing appended.

Asked: Given the compound CN1CC2c3ccccc3Oc3ccc(Cl)cc3C2C1 (stereo not shown) [asenapine maleate] , what is its reported solubility?
Given back: 500

----------
Assay: Solubility of asenapine maleate in a variety of solvents
Assay type: physicochemical
Settings: organic solvent or mixture; solvent glycofurol; read-out: solubility of asenapine maleate, Concentration
Counter-ions that a name gives are not always drawn.
readout-type: solubility (mg/mL)
Kindly answer with a numeric value in mg/mL, unit omitted.

Asked: What value of solubility has been reported for the following compound? CN1CC2c3ccccc3Oc3ccc(Cl)cc3C2C1 (stereo not shown) [asenapine maleate]
Given back: 270

----------
Assay: Solubility of asenapine maleate in a variety of solvents
Type: physicochemical
Details: organic solvent or mixture; solvent isopropyl acetate; read-out: solubility of asenapine maleate, Concentration
Where a name gives a salt, the structure may show the parent alone.
readout-type: solubility (µg/mL)
Number only, in µg/mL; omit the unit.

Asked: Entry CN1CC2c3ccccc3Oc3ccc(Cl)cc3C2C1 (stereo not shown) [asenapine maleate] has what solubility?
Given back: 9000

----------
Assay: Solubility of asenapine maleate in a variety of solvents
Format: physicochemical
Conditions: organic solvent or mixture; solvent methyl benzoate; read-out: solubility of asenapine maleate, Concentration
Structures can show the parent of a compound that is named as a salt.
readout-type: solubility (mg/mL)
Output spec: scalar in mg/mL, unitless text.

Asked: Find the recorded solubility belonging to CN1CC2c3ccccc3Oc3ccc(Cl)cc3C2C1 (stereo not shown) [asenapine maleate] and report it.
Given back: 20

----------
Experiment: Solubility of asenapine maleate in a variety of solvents
Assay type: physicochemical
Settings: organic solvent or mixture; solvent methyl acetate; read-out: solubility of asenapine maleate, Concentration
Structures can show the parent of a compound that is named as a salt.
readout-type: solubility (mg/mL)
Numbers only; they are read as mg/mL.

Asked: Query: solubility; subject: CN1CC2c3ccccc3Oc3ccc(Cl)cc3C2C1 (stereo not shown) [asenapine maleate]
Given back: 25

----------
Assay: Solubility of asenapine maleate in a variety of solvents
Format: physicochemical
Details: organic solvent or mixture; solvent ethyl formate; read-out: solubility of asenapine maleate, Concentration
Where a name gives a salt, the structure may show the parent alone.
readout-type: solubility (mg/mL)
Record the value in mg/mL, omitting the unit from your answer.

Asked: Need solubility, item CN1CC2c3ccccc3Oc3ccc(Cl)cc3C2C1 (stereo not shown) [asenapine maleate]
Given back: 100

----------
Experiment: Solubility of asenapine maleate in a variety of solvents
Assay type: physicochemical
Details: organic solvent or mixture; solvent NMP; read-out: solubility of asenapine maleate, Concentration
Counter-ions that a name gives are not always drawn.
readout-type: solubility (mg/mL)
All answers are understood in mg/mL, so give the number only.

Asked: Recorded solubility for CN1CC2c3ccccc3Oc3ccc(Cl)cc3C2C1 (stereo not shown) [asenapine maleate] , please?
Given back: 700

----------
Experiment: Solubility of asenapine maleate in a variety of solvents
Format: physicochemical
Conditions: organic solvent or mixture; solvent dimethycarbonate; read-out: solubility of asenapine maleate, Concentration
Protocol: The asenapine or a pharmaceutically acceptable salt thereof is dissolved in the organic phase or dispersed as a solid in the organic phase. In order to effectively dissolve the asenapine or a pharmaceutically acceptable salt thereof in the organic phase, a solution of the active principle in a solvent S2 can be provided, and this solution can be combined with the solution of the polymer in the organic solvent S1. […]
Structures can show the parent of a compound that is named as a salt.
readout-type: solubility (µg/mL)
Field: numeric (µg/mL). Do not append units.

Asked: # input compound: CN1CC2c3ccccc3Oc3ccc(Cl)cc3C2C1 (stereo not shown) [asenapine maleate] ; wanted: its solubility
Given back: 7000

----------
Assay: Solubility of asenapine maleate in a variety of solvents
Assay type: physicochemical
Conditions: organic solvent or mixture; solvent ethanol; read-out: solubility of asenapine maleate, Concentration
Structures can show the parent of a compound that is named as a salt.
readout-type: solubility (mg/mL)
The response must be a number in mg/mL with no trailing unit.

Asked: I would be grateful if you could share the reported solubility for CN1CC2c3ccccc3Oc3ccc(Cl)cc3C2C1 (stereo not shown) [asenapine maleate] .
Given back: 100

----------
Test: Solubility of asenapine maleate in a variety of solvents
Type: physicochemical
Settings: organic solvent or mixture; solvent isopropyl formate; read-out: solubility of asenapine maleate, Concentration
Counter-ions that a name gives are not always drawn.
readout-type: solubility (mg/mL)
Report as a plain number; the unit mg/mL is understood.

Asked: Field request: solubility | item: CN1CC2c3ccccc3Oc3ccc(Cl)cc3C2C1 (stereo not shown) [asenapine maleate]
Given back: 100

----------
Test: Solubility of asenapine maleate in a variety of solvents
Type: physicochemical
Settings: organic solvent or mixture; solvent isopropanol; read-out: solubility of asenapine maleate, Concentration
Where a name gives a salt, the structure may show the parent alone.
readout-type: solubility (µg/mL)
Answer format: numeric, µg/mL implied, no suffix.

Asked: Bench note: what solubility did CN1CC2c3ccccc3Oc3ccc(Cl)cc3C2C1 (stereo not shown) [asenapine maleate] show?
Given back: 7000
